We begin with a simple list: items and their reported EC50.
system: T1, human CD3 expressed on cells (Jurkat cells; human lymphocytes/PBMCs) (human, UniProt P07766 23-207)
T1 construct: on the cells it stands in the CD3/TCR complex; also called human CD3 epsilon; CD3 positive Jurkat cells
T1 sequence (P07766 23-207): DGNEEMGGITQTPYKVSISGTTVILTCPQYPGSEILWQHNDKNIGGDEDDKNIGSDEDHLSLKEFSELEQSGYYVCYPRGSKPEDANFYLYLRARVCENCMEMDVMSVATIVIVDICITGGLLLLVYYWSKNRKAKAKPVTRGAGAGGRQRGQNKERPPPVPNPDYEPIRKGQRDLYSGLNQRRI
protocol: flow cytometry on CD3 positive Jurkat cells, IgG titrated, anti-human F(ab')2-PE detection
attribute-measured: EC50 (nM)

1) mAb#Bremen (antibody, human IgG1, lambda, V domains shown) VH: EVQLVESGGGLVKPGGSLRLSCAASGFTFNTYAMNWVRQAPGKGLEWVGRIRSKYNNYATYYADSVKDRFTISRDDSKNTLYLQMNSLKTEDTAVYYCTTHGNFGNSYVSWFAYWGQGTLVTVSS VL: QTVVTQEPSLTVSPGGTVTLTCRSSTGAVTTSNYANWVQQKPGQAPRGLIGGTKFLAPGTPARFSGSLLGGKAALTLSGVQPEDEAEYYCALWYSNLWVFGGGTKLTVLG: 6.3
2) mAb#Mainz (antibody, human IgG1, lambda, V domains shown) VH: QVQLVESGGGLVKPGGSLRLSCAASGFTFNTYAMNWIRQAPGKGLEWVSRIRSKYNNYATYYADSVKDRFTISRDNAKNSLYLQMNSLRAEDTAVYYCVRHGNFGNSYVSWFAYWGQGTLVTVSS VL: QAVVTQEPSLTVSPGGTVTLTCRSSTGAVTTSNYANWVQQKPGQAPRGLIGGTNKRAPWTPARFSGSLLGGKAALTITGAQAEDEADYYCALWYSNLWVFGGGTKLTVLG: 9.4
3) SP34 (m/h chimeric) IgG (antibody, V domains shown, Murine SP34 variable domains tested as mouse/human chimeric IgG; also called SP34 IgG (m/h chimera)) VH: EVQLVESGGGLVQPKGSLKLSCAASGFTFNTYAMNWVRQAPGKGLEWVARIRSKYNNYATYYADSVKDRFTISRDDSQSILYLQMNNLKTEDTAMYYCVRHGNFGNSYVSWFAYWGQGTLVTVSS VL: QAVVTQESALTTSPGETVTLTCRSSTGAVTTSNYANWVQEKPDHLFTGLIGGTNKRAPGVPARFSGSLIGDKAALTITGAQTEDEAIYFCALWYSNLWVFGGGTKLTVLG: 1.4
4) mAb#Gladbach (antibody, human IgG1, lambda, V domains shown) VH: QVQLVESGGGLVKPGGSLRLSCAASGFTFNTYAMNWIRQAPGKGLEWVSRIRSKYNNYATYYADSVKDRFTISRDNAKNSLYLQMNSLRAEDTAVYYCVRHGNFGNSYVSWFAYWGQGTLVTVSS VL: QTVVTQEPSLTVSPGGTVTLTCRSSTGAVTTSNYANWVQQKPGQAPRGLIGGTKFLAPGTPARFSGSLLGGKAALTLSGVQPEDEAEYYCALWYSNLWVFGGGTKLTVLG: 1.4
5) mAb#München (antibody, human IgG1, lambda, V domains shown, also called Munchen) VH: EVQLVESGGGLVKPGGSLRLSCAASGFTFNTYAMNWVRQAPGKGLEWVGRIRSKYNNYATYYADSVKDRFTISRDDSKNTLYLQMNSLKTEDTAVYYCTTHGNFGNSYVSWFAYWGQGTLVTVSS VL: QTVVTQEPSLTVSPGGTVTLTCRSSTGAVTTSNYANWVQQKPGQAPRGLIGGTKFLAPGTPARFSGSLLGGKAALTLLGAQPEDEAEYYCALWYSNLWVFGGGTKLTVLG: 6.6
6) mAb#Freiburg (antibody, human IgG1, lambda, V domains shown) VH: EVQLVESGGGLVKPGGSLRLSCAASGFTFNTYAMNWVRQAPGKGLEWVGRIRSKYNNYATYYADSVKDRFTISRDDSKNTLYLQMNSLKTEDTAVYYCTTHGNFGNSYVSWFAYWGQGTLVTVSS VL: QTVVTQEPSLTVSPGGTVTLTCRSSTGAVTTSNYANWVQQKPGQAPRGLIGGTNKRAPGTPARFSGSLLGGKAALTLLGAQPEDEAEYYCALWYSNLWVFGGGTKLTVLG: 10.7
